Target: T1, human Aβ pE3-18 peptide, pEFRHDSGYEVHHQKLV (human)
T1 construct: The range 3-18 counts on the Aβ peptide; also called pE3-Aβ18; pE3-Aβ peptide
T1 peptide: [pGlu]FRHDSGYEVHHQKLV
Assay: SPR, 1:1 Langmuir fit
Non-standard residues stand in square brackets, D forms with d. No end group written: not given here. pGlu = O=C1CC[C@@H](C(=O)O)N1
observation-type: pKd
Quick note: pKd means taking -log10 of the concentration in moles per liter.

humanized antibody clone #6 sequence variant VH: SEQ ID NO: 27, VL: SEQ ID NO: 13 (antibody, human IgG1, V domains shown) VH: QVQLVQSGAEVKKSGASVKVSCKASGYSFTGHTMNWVRQAPGQGLEWMGLINPSNGVTRYNQKFQGRVTITRDTSTTTVHMELTSLTSEDTATYYCTREAKREWDETYWGQGTLVTVSS VL: DVVMTQSPLSLPVTLGQPASISCKSSQSLLYSDGKTYLNWFQQRPGQSPRRLAYLVSKLDSGVPDRFSGSGSGTDFTLKISRVEAEDVGVYYCVQGTHFPFTFGGGTKVEIK
8.13
humanized antibody clone #6 sequence variant VH: SEQ ID NO: 27, VL: SEQ ID NO: 15 (antibody, human IgG1, V domains shown) VH: QVQLVQSGAEVKKSGASVKVSCKASGYSFTGHTMNWVRQAPGQGLEWMGLINPSNGVTRYNQKFQGRVTITRDTSTTTVHMELTSLTSEDTATYYCTREAKREWDETYWGQGTLVTVSS VL: DVVMTQSPLSLPVTLGQPASISCKSSQSLLHSDGKTYLNWFQQRPGQSPRRLTYLVSKLDSGVPDRFSGSGSGTDFTLKISRVEAEDVGVYYCVQGTHFPFTFGGGTKVEIK
7.81

Which pKd is reported for this binder? humanized antibody clone #6 sequence variant VH: SEQ ID NO: 70, VL: SEQ ID NO: 14 (antibody, human IgG1, V domains shown) VH: QVQLVQSGAEVKKSGASVKVSCKASGYSFTGHTMNWVRQAPGQGLEWMGLINPSNEVTRYNQKFQGRVTITRDTSTTTVHMELTSLTSEDTATYYCTREAKREWDETYWGQGTLVTVSS VL: DVVMTQSPLSLPVTLGQPASISCKSSQSLLYSDGKTYLNWFQQRPGQSPRRLTYLVSKLDSGVPDRFSGSGSGTDFTLKISRVEAEDVGVYYCVQGTHFPFTFGGGTKVEIK 8.07
